Target: Bcl-2, P10415
Sequence (P10415 1-217): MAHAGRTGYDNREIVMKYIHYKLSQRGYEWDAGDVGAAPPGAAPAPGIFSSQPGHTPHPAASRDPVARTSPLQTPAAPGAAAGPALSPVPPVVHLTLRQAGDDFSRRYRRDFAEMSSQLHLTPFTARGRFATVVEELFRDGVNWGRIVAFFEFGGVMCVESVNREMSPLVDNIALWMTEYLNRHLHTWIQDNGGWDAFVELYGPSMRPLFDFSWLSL
Test: peptide SPOT array, c-Myc-tagged receptor at 1 uM or 100 nM, anti-c-Myc-Cy3
Please enter rule met where SPOT signal as a fraction of Bim BH3's signal on the same receptor and array is greater than or equal to 0.02, and rule not met where it is lower.

Study these solved cases before continuing.
Exercise: Could you please find out whether DLSSTFVSLALRKVGDWPLSARREKG [TTC31] has SPOT signal as a fraction of Bim BH3's signal on the same receptor and array that meets 0.02 or exceeds it?
Solution: rule met

Exercise: Could you please find out whether EQKLKQHVENLNQVAEKLEEKHSQIT [CCDC68] has SPOT signal as a fraction of Bim BH3's signal on the same receptor and array that meets 0.02 or exceeds it?
Solution: rule not met

Exercise: Could you please find out whether DAIIQMIVELLKRVGDQWEEEQSLAS [C6orf222] has SPOT signal as a fraction of Bim BH3's signal on the same receptor and array that meets 0.02 or exceeds it?
Solution: rule not met

Exercise: Could you please find out whether GDRAGGRSWCLRRVGMSAGWLLLEDG [RNF8] has SPOT signal as a fraction of Bim BH3's signal on the same receptor and array that meets 0.02 or exceeds it?
Solution: rule met

Exercise: Could you please find out whether MEGSDALALRLACIGDEMDVSLRAPR [BIK] has SPOT signal as a fraction of Bim BH3's signal on the same receptor and array that meets 0.02 or exceeds it?
Solution: rule met

Exercise: Could you please find out whether AAVGNHVAKLLQSIGQAPESISEKEL [NAE1] has SPOT signal as a fraction of Bim BH3's signal on the same receptor and array that meets 0.02 or exceeds it?
Solution: rule not met

Exercise: Could you please find out whether ADLYEEAAENLHQLSDKLPAPGRAMV [MTBP] has SPOT signal as a fraction of Bim BH3's signal on the same receptor and array that meets 0.02 or exceeds it?
Solution: rule not met

Exercise: Could you please find out whether IKKSVTKGEMLKIVGKRFREHFPEIL [MAGEB2] has SPOT signal as a fraction of Bim BH3's signal on the same receptor and array that meets 0.02 or exceeds it?
Solution: rule met

Exercise: Could you please find out whether PVGYLVESGRLSVMGCDVLKAVSDYF [MFI2] has SPOT signal as a fraction of Bim BH3's signal on the same receptor and array that meets 0.02 or exceeds it?
Solution: rule not met

Exercise: Could you please find out whether GVAASDFIRSLDHCGDLALEGVFSHK [NLRC4] has SPOT signal as a fraction of Bim BH3's signal on the same receptor and array that meets 0.02 or exceeds it?
Solution: rule not met

***
Exercise: Could you please find out whether DGLDLPSETDLRILGCELIQAAGILL [CCNL1] has SPOT signal as a fraction of Bim BH3's signal on the same receptor and array that meets 0.02 or exceeds it?
Solution: rule not met

Exercise: Could you please find out whether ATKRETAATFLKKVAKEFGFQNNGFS [NPLOC4] has SPOT signal as a fraction of Bim BH3's signal on the same receptor and array that meets 0.02 or exceeds it?
Solution: rule met
